# selectivity ratio listing for each entry below
assay explanation: Selectivity ratio of CC50 for human HeLa cells to IC50 for Plasmodium falciparum MRC-02
Assay type: ADME, cell-based
condition notes: read-out: Ratio CC50/IC50

>  <compound>
O=C(c1cccnc1)N1N=C(c2ccc(O)cc2)CC1c1ccc(Cl)cc1Cl (stereo not given)

>  <selectivity ratio>
33.3

$$$$
>  <compound>
Cc1ccccc1C1CC(c2ccc(O)cc2)=NN1C(=O)c1cccnc1 (stereo not given)

>  <selectivity ratio>
29

$$$$
>  <compound>
COc1cc(C2CC(c3ccc(O)cc3)=NN2C(=O)c2cccnc2)cc(OC)c1OC (stereo not given)

>  <selectivity ratio>
31.2

$$$$
>  <compound>
O=C(c1cccnc1)N1N=C(c2ccc(O)cc2)CC1c1ccccc1 (stereo not given)

>  <selectivity ratio>
61.7

$$$$
>  <compound>
CCOc1ccc(C2CC(c3ccc(O)cc3)=NN2C(=O)c2cccnc2)cc1OC (stereo not given)

>  <selectivity ratio>
47.5

$$$$
>  <compound>
O=C(c1cccnc1)N1N=C(c2ccc(O)cc2)CC1c1ccccc1Br (stereo not given)

>  <selectivity ratio>
140

$$$$
>  <compound>
O=C(c1cccnc1)N1N=C(c2ccc(O)cc2)CC1c1cccc([N+](=O)[O-])c1 (stereo not given)

>  <selectivity ratio>
35.2

$$$$
>  <compound>
Cc1ccc(C2CC(c3ccc(O)cc3)=NN2C(=O)c2cccnc2)cc1 (stereo not given)

>  <selectivity ratio>
39.4

$$$$
>  <compound>
O=C(c1cccnc1)N1N=C(c2ccc(O)cc2)CC1c1cccc(Br)c1 (stereo not given)

>  <selectivity ratio>
118

$$$$
>  <compound>
COc1ccc(Br)cc1C1CC(c2ccc(O)cc2)=NN1C(=O)c1cccnc1 (stereo not given)

>  <selectivity ratio>
53.7

$$$$
